meta.source: patent US20250051330A1

target: K-Ras^G12D and hSOS1 (Homo sapiens)
Construct: variant: G12D
Sequence (Q07889 whole entry, looked up, stated change not applied): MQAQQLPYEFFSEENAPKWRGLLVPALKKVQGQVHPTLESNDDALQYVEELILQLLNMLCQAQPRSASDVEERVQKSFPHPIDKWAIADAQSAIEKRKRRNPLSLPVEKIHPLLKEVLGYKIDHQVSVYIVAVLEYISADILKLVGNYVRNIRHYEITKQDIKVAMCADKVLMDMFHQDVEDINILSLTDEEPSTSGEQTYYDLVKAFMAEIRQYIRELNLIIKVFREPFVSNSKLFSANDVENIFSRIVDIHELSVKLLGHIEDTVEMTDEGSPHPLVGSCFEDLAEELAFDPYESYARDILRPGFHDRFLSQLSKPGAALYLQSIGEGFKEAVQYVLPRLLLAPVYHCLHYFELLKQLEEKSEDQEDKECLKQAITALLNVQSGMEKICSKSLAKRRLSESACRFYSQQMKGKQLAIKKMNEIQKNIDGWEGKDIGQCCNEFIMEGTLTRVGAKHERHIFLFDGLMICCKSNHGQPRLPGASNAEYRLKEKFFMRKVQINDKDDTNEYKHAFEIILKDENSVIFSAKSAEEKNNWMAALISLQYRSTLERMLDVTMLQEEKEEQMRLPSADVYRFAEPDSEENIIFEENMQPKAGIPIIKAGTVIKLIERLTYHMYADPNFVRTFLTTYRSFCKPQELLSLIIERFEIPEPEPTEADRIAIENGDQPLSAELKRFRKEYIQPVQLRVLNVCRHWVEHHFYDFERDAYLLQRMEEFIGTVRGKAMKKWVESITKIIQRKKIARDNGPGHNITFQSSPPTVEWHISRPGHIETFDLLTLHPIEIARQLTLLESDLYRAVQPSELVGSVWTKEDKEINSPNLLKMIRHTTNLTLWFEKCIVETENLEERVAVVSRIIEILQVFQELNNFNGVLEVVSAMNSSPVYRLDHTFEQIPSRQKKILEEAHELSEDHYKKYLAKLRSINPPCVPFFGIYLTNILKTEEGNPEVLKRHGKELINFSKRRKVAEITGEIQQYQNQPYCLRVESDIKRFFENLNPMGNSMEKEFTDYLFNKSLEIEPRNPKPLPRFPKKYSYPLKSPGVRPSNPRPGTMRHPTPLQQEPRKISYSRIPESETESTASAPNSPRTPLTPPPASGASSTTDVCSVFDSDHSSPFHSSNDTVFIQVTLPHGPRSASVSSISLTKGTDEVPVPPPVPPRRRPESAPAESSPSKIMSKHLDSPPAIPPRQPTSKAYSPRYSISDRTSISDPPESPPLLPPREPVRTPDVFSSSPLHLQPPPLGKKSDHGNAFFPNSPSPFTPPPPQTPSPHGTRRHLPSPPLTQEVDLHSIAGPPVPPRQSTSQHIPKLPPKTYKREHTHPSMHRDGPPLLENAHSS
assay_text: K-Ras G12D and hSOS1 binding assay (HTRF)
measurement_setup: inhibition of binding of K-Ras G12D to hSOS1, HTRF; read-out: Activity by IC50 (nM), SOS1 inhibitory activity
Procedure: 1. K-Ras^G12D and hSOS1 Binding Assay This assay could be used to examine the potency of the compounds to inhibit the protein-protein interaction between SOS1 and KRAS G12D. The binding of anti-GSK-Europium (FRET donor)-conjugated GST-KRas^G12D to anti-6His-XL665-conjugated His-tagged hSOS1 ([…]) was detected by homogeneous time-resolved fluorescence (HTRF), and the inhibitory effects of the compounds on the binding of K-Ras^G12D to hSOS1 were determined. […]
Listing of entries alongside the reported IC50.
quantity_kind: IC50

>>> value_observed("Cc1nc(N[C@H](C)c2cccc(C(F)(F)CO)c2)c2c(n1)N1CCN=C1C(c1ccn(C)c(=O)c1)=C2")
"< 10 nM"
>>> value_observed("Cc1nc(N[C@H](C)c2cccc(C(F)(F)F)c2)c2c(n1)N1CCN=C1C(c1ccc(=O)n(CCO)c1)=C2")
"< 10 nM"
>>> value_observed("Cc1nc(N[C@H](C)c2cccc(C(F)(F)CO)c2)c2c(n1)N1CCN=C1C(c1ccc(=O)n(C)c1)=C2")
"< 10 nM"
>>> value_observed("CC(=O)N1CC=C(C2=Cc3c(N[C@H](C)c4cccc(C(F)F)c4F)nc(C)nc3N3CCN=C23)CC1")
"10 to 50 nM"
>>> value_observed("[2H]C([2H])([2H])n1ccc(C2=Cc3c(N[C@H](C)c4cccc(C(F)(F)F)c4)nc(C)nc3N3CCN=C23)cc1=O")
"10 to 50 nM"
>>> value_observed("Cc1nc(N[C@H](C)c2cccc(C(F)(F)F)c2F)c2cc(-c3ccn(C)c(=O)c3)n3cnnc3c2n1")
"10 to 50 nM"
>>> value_observed("Cc1nc(N[C@H](C)c2cccc(C(F)F)c2F)c2cc(-c3ccn(C)c(=O)c3)n3cnnc3c2n1")
"10 to 50 nM"
